Recorded growth values for a group of compounds are listed next.
# Test system: U251 CNS
# experiment-summary: NCI-60 one-dose screen, 48 h (100 = growth as untreated, 0 = no growth, -100 = all killed)
# condition-summary: 10 µM unless noted
This is part of a sample that, as a whole, favours compounds with a hit. Of some 83,000 tested, about 20% had one in any assay.
Report the figure in % without appending any unit label.

compound	observed-measurement
COc1ncc(-c2ccc3ncnc(Nc4cccc(Cl)c4)c3c2)cc1NS(=O)(=O)C1CC1	59.9
O=P([O-])(O)OP(=O)([O-])O.[NH-][C@H]1CCCC[C@@H]1[NH-].[OH-].[OH-].[Pt+4]	91.1
CCC(c1cccc(Br)c1)C(C(=O)O)c1ccc(OC)cc1 (centres undefined)	90.4

Inquiry: Provide the documented growth with U251 CNS as the system for CCCCC(N)(C(=O)O)C1CCCC1 (centres undefined)
Reply text: 91

src = PubChem BioAssay (NCI)
